FYI, the data here is from the RNAGym collection of RNA variant scans (doi:10.1021/acssynbio.7b00057).

B1: Pistol ribozyme (parent)
chain: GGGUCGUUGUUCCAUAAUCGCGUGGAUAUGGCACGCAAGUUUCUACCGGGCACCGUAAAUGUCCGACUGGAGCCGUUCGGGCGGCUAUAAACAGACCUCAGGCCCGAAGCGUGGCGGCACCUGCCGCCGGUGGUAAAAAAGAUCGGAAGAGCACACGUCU

- Variants of: B1
- Assay Info: aptazyme ON/OFF ratio, guanine; higher = stronger switching; co-transcriptional cleavage with and without guanine
Quantity: aptazyme ON/OFF ratio
Numbers only.

Recorded aptazyme ON/OFF ratio, per entry:
State the recorded aptazyme ON/OFF ratio for this entry: U8G G9A U10G U11C
1.05

State the recorded aptazyme ON/OFF ratio for this entry: U7A G9A U10C U11C C12A C13A
1.06

Please look at the items below and tell me aptazyme ON/OFF ratio for each one, in order.
1. U8C G9U U10G U11G C12U C13G
2. U7G G9U U10A C12U C13U
3. U7A U8A G9A U10G U11G C12U
4. U7A U8G U10C U11G C12A C13A
5. U7A G9U U10A U11G C13G

1. 1.08
2. 1.15
3. 1.33
4. 1.42
5. 1.07

Please look at the items below and tell me aptazyme ON/OFF ratio for each one, in order.
1. U7A G9A U10G U11C C13A
2. U7C G9C U10A C13U
3. G9A U10A C12G C13U
4. U8G U10G U11G C12U C13U
5. U7C U8A G9U U10A C13U
6. U7A U8A U10A C12A C13G

1. 1.19
2. 1.05
3. 1.57
4. 1.34
5. 1.19
6. 1.03

State the recorded aptazyme ON/OFF ratio for this entry: U7C U8G G9C U10C U11G C12G C13U
1.05
